Where do the numbers come from? From patent US10669272B2.

Target: human DGKα (Homo sapiens)
Construct: TVMV protease cleavage site (C); Hexa-His (C); made in house; host or cells: Sf9 insect cells (baculovirus, Bac-to-Bac)
Sequence (P23743 with tags, fused parts or gaps): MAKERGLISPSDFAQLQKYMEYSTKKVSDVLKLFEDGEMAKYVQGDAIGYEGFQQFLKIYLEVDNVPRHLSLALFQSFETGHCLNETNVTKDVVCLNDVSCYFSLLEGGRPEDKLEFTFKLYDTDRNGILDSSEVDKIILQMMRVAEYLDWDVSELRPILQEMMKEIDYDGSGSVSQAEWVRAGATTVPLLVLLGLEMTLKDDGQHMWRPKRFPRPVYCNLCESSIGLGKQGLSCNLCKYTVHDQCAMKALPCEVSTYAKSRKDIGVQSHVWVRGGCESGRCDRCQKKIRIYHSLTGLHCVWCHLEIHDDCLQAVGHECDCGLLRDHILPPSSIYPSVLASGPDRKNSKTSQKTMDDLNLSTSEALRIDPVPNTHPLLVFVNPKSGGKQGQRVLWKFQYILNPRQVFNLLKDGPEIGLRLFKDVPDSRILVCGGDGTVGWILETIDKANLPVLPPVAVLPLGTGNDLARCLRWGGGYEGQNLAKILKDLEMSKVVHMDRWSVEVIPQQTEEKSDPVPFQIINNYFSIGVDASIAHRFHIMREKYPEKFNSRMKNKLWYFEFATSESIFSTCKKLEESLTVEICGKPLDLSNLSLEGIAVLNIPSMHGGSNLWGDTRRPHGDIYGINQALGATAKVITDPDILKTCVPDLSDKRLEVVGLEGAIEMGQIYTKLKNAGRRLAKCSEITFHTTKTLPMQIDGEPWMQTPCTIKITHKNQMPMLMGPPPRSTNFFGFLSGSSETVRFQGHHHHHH
Test: DGKα LIPGLO assay (extruded liposome substrate), in vitro DGK inhibition
Assay type: biochemical
Conditions: DGKα liposome (LIPGLO) assay; read-out: DGKa LIPGLO IC50
Property label: pIC50
Numbers only, as −log10 of the molar value.

Example entries begin here.
{"Molecule": "C[C@@H]1CN(c2cc(=O)n(C)c3ccc(C#N)nc23)[C@@H](C)CN1C(c1ccc(F)cc1)c1cc(C2CC2)on1 (single isomer, unassigned) [Example 730]", "pIC50": 7.36}
{"Molecule": "Cc1ccc(C(c2ncccc2F)N2CCN(c3c(C#N)c(=O)n(C)c4ccc(C#N)nc34)C[C@H]2C)cc1 (single isomer, unassigned) [Example 890]", "pIC50": 4.96}

Provide reported pIC50 for each item, in the same order as listed.
1. C[C@@H]1CN(c2c(C#N)c(=O)n(C)c3ccc(C#N)nc23)CCN1C(c1ccc(F)cc1)c1ccc(C(F)(F)F)cc1 (single isomer, unassigned) [Example 914]
2. COC(=O)c1ccc(C(C)N2CCN(c3c(C#N)c(=O)n(C)c4ccc(C#N)nc34)C[C@H]2C)cc1 (some centres unmarked) [Example 981]
3. C[C@@H]1CN(c2c(C#N)c(=O)n(C)c3ccc(C#N)nc23)CCN1C(c1cccc(F)c1)c1ccc(F)cn1 (single isomer, unassigned) [Example 911]

[5.89, 5.68, 6.16]

Parameters: items (list). Returns: pIC50 for each item.
1. C[C@@H]1CN(c2c(C#N)c(=O)n(C)c3ccc(C#N)nc23)CCN1C(c1ccc(F)cc1)c1ccc(C(F)(F)F)cn1 (single isomer, unassigned) [Example 897]
2. C[C@@H]1CN(c2c(C#N)c(=O)n(C)c3ccc(C#N)nc23)CCN1Cc1c(F)cc(F)cc1F [Example 986]
3. C[C@@H]1CN(c2c(C#N)c(=O)n(C)c3ccc(C#N)nc23)[C@@H](C)CN1C(c1ccc(F)cc1)c1cn(C)cn1 (single isomer, unassigned) [Example 852]

[6.60, 5.38, 5.89]
